# MEASURED_ON: SHP2 (Homo sapiens (Human))
# Sequence (Q06124 whole entry): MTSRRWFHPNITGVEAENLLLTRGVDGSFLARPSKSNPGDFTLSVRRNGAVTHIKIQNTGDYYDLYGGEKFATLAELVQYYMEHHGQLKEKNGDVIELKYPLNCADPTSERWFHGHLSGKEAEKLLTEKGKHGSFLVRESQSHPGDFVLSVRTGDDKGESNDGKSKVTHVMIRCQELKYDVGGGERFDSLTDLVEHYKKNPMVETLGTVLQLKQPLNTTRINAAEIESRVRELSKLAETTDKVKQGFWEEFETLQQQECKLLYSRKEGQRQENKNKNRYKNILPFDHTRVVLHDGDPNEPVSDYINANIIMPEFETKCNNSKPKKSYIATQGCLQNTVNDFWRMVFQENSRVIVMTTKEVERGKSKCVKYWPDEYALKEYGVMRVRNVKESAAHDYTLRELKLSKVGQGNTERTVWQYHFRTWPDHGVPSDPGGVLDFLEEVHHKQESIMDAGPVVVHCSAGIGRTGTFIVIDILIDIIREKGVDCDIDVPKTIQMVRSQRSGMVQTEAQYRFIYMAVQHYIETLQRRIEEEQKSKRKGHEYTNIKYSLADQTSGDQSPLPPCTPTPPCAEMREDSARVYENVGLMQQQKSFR
# ASSAY_DETAILS: SHP2 Allosteric Inhibition Assay (DiFMUP prompt fluorescence)
# CONDITION_LABEL: 0.25 nM SHP2 activated with 0.5 μM peptide IRS1_pY1172(dPEG8)pY1222; substrate DiFMUP 100 μM; 25° C.
pIC50: −log10 of the molar value.
Provide the reported pIC50 of each item.

These recorded examples may help you get a feel for the data.
[[record]]
molecule = "Cc1ccc2c(c1)CCCN2c1n[nH]c2nc(N3CCC4(CC3)CO[C@@H](C)[C@H]4N)cnc12 [Compound 354]"
meas_value = "> 6.00"

[[record]]
molecule = "c1ccc(C2CCN(c3cnc4c(N5CCCc6ncccc65)n[nH]c4n3)C2)cc1 (centres unmarked) [Compound 151]"
meas_value = "≤ 5.00"


Would you mind giving pIC50 for every molecule in the list below?
1. CC1(CN)CCN(c2cnc3c(N4CCC(CO)c5ccccc54)n[nH]c3n2)CC1 (centres unmarked) [Compound 99]
2. NC[C@H]1CCN(c2cnc3c(N4CCCc5ncccc54)n[nH]c3n2)[C@@H](Cc2ccccc2)C1 (racemic) [Compound 159]

Reply:
1: > 6.00; 2: 5.00 to 6.00

Would you mind giving pIC50 for every molecule in the list below?
1. N[C@@H]1C[C@H](O)CC12CCN(c1cnc3c(N4CCCc5ncccc54)n[nH]c3n1)CC2 [Compound 467]
2. C[C@@H]1OCC2(CCN(c3cnc4c(N5CCN(C)c6cc(-c7ncco7)ccc65)n[nH]c4n3)CC2)[C@@H]1N [Compound 395]

Reply:
> 6.00
> 6.00

Would you mind giving pIC50 for every molecule in the list below?
1. N[C@@H]1CCC[C@]12CCN(c1cnc3c(N4CCCc5ncccc54)n[nH]c3n1)C2 (stereo in doubt) [Compound 204]
2. CCn1cc(-c2ccc3c(n2)CCCN3c2n[nH]c3nc(N4CCC5(CC4)CO[C@@H](C)[C@H]5N)cnc23)cn1 [Compound 334]
3. CC1CCN(c2n[nH]c3nc(N4CCC5(CC4)CO[C@@H](C)[C@H]5N)cnc23)c2ccc(C(N)=O)nc21 (stereo in doubt) [Compound 264]
4. C[C@@H]1OCC2(CCN(c3cnc4c(N5CCN([C@@H]6CCOC6)c6cc(C#N)ccc65)n[nH]c4n3)CC2)[C@@H]1N [Compound 403]
5. C#Cc1ccc2c(n1)CCCN2c1n[nH]c2nc(N3CCC4(CC3)CO[C@@H](C)[C@H]4N)cnc12 [Compound 410]

Reply:
1. 5.00 to 6.00
2. > 6.00
3. > 6.00
4. > 6.00
5. > 6.00

====

# MEASURED_ON: SHP2 (Homo sapiens (Human))
# ASSAY_DETAILS: SHP2 Allosteric Inhibition Assay (DiFMUP prompt fluorescence)
# CONDITION_LABEL: 0.25 nM SHP2 activated with 0.5 μM peptide IRS1_pY1172(dPEG8)pY1222; substrate DiFMUP 100 μM; 25° C.
pIC50: −log10 of the molar value.
Provide the reported pIC50 of each item.

These recorded examples may help you get a feel for the data.
[[record]]
molecule = "C[C@@H]1OCC2(CCN(c3cnc4c(N5CCCc6c5ccnc6N5CCOC5=O)n[nH]c4n3)CC2)[C@@H]1N [Compound 225]"
meas_value = "> 6.00"

[[record]]
molecule = "CC1Cc2ccccc2C(=O)N1c1n[nH]c2nc(N3CCC4(CC3)CO[C@@H](C)[C@H]4N)cnc12 (stereo partly shown) [Compound 385]"
meas_value = "≤ 5.00"

[[record]]
molecule = "CC(=O)N1CCN(c2n[nH]c3nc(N4CCC5(CC4)CO[C@@H](C)[C@H]5N)cnc23)c2ccccc21 [Compound 235]"
meas_value = "> 6.00"

[[record]]
molecule = "NC[C@@H]1C[C@H]2CC[C@@H](C1)N2c1cnc2c(N3CCCc4ncccc43)n[nH]c2n1 [Compound 150]"
meas_value = "> 6.00"

[[record]]
molecule = "C[C@@H]1OCC2(CCN(c3cnc4c(N5CCN(C)c6cnccc65)n[nH]c4n3)CC2)[C@@H]1N [Compound 276]"
meas_value = "> 6.00"


Would you mind giving pIC50 for every molecule in the list below?
1. C[C@@H]1OCC2(CCN(c3cnc4c(N5CCCc6c(CCO)cccc65)n[nH]c4n3)CC2)[C@@H]1N [Compound 435]
2. CCS(=O)(=O)c1cccc2c1CCCN2c1n[nH]c2nc(N3CCC4(CC3)CO[C@@H](C)[C@H]4N)cnc12 [Compound 368]

Reply:
["> 6.00", "> 6.00"]
